These entries and their values trace back to ChEMBL document CHEMBL3739264.

tested on: MDA-MB-468; test: Antiproliferative activity against human MDA-MB-468 cells after 72 hrs by SRB assay; format: functional, cell-based; details: MDA-MB-468, 72 h
Recorded measurements of IC50, one per entry
Answer in µM, number only, no unit symbol.

COc1ccc2nc(Cl)c(/C=C\c3ccccc3C(F)(F)F)cc2c1 : 4.98

Field: next molecule
# query: IC50 of entry CC[C@@]1(O)C(=O)OCc2c1cc1n(c2=O)Cc2cc3ccccc3nc2-1 [CAMPTOTHECIN]
0.0148

----------
system: MDA-MB-468; assay: Antiproliferative activity against human MDA-MB-468 cells after 72 hrs by SRB assay; type: functional, cell-based; conditions: MDA-MB-468, 72 h
assayReadout: IC50

# count of solved cases: 2
FC(F)(F)c1cccc(/C=C\c2cc3cc4c(cc3nc2Cl)OCO4)c1 : > 50 µM
FC(F)(F)c1cc(/C=C\c2cc3ccc(Cl)cc3nc2Cl)cc(C(F)(F)F)c1 : > 50 µM

Field: next compound
# query: IC50 of entry FC(F)(F)c1cc(/C=C\c2cc3cc4c(cc3nc2Cl)OCO4)cc(C(F)(F)F)c1
> 50 µM
